Entries annotated with measured IC50
target: rat intestinal α-glucosidase (Rattus norvegicus); construct: rat intestinal α-glucosidase solution; from tissue; host or cells: rat intestine; experiment: α-Glucosidase inhibition assay; format: biochemical; conditions: rat intestinal α-glucosidase, sucrose substrate, mean ± SEM; read-out: IC50, α-glucosidase inhibitory activity (converted)
Sequence (P23739 whole entry): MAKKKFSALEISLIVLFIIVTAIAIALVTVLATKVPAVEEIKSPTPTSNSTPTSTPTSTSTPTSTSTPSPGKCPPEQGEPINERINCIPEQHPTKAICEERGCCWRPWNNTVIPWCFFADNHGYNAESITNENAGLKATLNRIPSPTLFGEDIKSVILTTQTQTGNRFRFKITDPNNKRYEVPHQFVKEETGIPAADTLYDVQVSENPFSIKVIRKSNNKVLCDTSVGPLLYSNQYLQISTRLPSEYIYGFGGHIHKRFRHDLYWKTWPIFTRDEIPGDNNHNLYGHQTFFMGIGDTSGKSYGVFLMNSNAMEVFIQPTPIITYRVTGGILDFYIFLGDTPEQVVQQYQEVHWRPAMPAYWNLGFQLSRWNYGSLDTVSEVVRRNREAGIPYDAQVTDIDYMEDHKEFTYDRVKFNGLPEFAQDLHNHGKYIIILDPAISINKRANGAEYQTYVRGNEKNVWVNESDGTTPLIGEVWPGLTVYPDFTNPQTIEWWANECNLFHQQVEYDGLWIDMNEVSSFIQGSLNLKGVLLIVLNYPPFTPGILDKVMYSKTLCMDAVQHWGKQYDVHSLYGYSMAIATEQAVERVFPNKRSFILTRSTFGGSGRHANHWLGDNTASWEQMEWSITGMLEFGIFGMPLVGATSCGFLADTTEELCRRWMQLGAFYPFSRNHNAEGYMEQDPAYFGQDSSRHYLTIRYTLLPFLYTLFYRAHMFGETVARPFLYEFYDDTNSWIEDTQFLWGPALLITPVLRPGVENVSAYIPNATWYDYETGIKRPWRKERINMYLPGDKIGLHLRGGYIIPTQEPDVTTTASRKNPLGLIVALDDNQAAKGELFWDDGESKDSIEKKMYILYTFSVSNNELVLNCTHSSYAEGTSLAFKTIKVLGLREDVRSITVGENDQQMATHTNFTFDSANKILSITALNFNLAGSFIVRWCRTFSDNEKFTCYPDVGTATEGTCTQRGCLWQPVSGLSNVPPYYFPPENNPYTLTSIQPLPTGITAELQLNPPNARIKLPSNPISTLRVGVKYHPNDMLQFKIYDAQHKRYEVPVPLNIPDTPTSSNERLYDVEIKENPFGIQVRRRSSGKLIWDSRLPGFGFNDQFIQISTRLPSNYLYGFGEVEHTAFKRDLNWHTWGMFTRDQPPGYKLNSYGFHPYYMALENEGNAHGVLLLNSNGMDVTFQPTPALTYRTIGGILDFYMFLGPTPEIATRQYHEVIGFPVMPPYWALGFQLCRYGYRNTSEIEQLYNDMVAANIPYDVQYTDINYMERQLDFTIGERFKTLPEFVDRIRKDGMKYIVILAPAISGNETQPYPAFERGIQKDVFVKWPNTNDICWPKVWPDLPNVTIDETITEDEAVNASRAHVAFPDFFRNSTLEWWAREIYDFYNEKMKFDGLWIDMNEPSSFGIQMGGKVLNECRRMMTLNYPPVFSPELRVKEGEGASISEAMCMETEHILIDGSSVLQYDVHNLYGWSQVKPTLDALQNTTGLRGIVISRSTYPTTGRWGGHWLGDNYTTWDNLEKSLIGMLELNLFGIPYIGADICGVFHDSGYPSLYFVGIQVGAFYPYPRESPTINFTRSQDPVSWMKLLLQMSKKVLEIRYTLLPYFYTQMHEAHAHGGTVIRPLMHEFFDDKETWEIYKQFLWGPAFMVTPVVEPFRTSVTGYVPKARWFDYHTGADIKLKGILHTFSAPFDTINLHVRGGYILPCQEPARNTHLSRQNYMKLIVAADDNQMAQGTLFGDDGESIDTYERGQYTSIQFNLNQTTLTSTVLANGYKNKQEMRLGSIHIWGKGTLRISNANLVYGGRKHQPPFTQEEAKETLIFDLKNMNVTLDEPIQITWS
measurement.label: IC50 (µM)

• CC(=O)OC1CCC2(C)C(CCC3(C)C2CC=C2C4C(C)C(C)CCC4(C)CCC23C)C1(C)C (stereo not drawn) [α-Amyrin acetate, α-amyrin acetate] = 716
• CC[C@H](/C=C/[C@@H](C)[C@H]1CC[C@H]2[C@@H]3CC=C4C[C@@H](O)CC[C@]4(C)[C@H]3CC[C@]12C)C(C)C = 280
• Oc1cc(O)c2c(c1)O[C@H](c1ccc(O)c(O)c1)[C@H](O)C2 [Epicatechin, epicatechin] = 19.7
• Oc1ccc(C2Oc3cc(O)cc(O)c3CC2O)cc1 (stereo not shown) [Epiafzelechin, epiafzelechin] = 27.9

Attribution: paper PMC10708125
